pIC50: −log10 of the molar value.
# pIC50 against BTK (Homo sapiens, UniProt Q06187), merged from multiple literature sources
# Sequence (Q06187 whole entry): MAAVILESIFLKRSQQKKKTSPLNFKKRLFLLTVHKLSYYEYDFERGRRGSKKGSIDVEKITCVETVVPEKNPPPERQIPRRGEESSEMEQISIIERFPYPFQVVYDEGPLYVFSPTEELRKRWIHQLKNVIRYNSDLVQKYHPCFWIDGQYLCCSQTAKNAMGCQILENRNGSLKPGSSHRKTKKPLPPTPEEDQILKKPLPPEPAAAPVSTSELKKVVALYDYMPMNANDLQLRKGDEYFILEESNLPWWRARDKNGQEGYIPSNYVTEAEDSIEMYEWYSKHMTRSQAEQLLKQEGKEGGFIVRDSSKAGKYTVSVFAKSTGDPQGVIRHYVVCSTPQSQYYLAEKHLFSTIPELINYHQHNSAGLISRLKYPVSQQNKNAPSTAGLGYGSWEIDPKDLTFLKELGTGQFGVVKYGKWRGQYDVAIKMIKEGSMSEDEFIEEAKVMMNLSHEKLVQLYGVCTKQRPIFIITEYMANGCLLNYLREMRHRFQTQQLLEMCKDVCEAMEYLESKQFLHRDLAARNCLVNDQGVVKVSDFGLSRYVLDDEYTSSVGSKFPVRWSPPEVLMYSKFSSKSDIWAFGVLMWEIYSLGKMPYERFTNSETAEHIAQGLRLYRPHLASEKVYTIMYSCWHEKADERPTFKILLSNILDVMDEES

| molecule | pIC50 |
| --- | --- |
| C=CC(=O)N1CCC2CC21c1nc(-c2ccc(Oc3ccccc3)cc2)c2c(N)nccn12 (stereo not shown) | 6.76 |
| CNCc1cc(-c2ccnc(N)n2)ccc1CNC(=O)c1cc2c(s1)CCCC2 | 6.00 to 7.00 |
| CC#CC(=O)N1CCC(Cn2nc(-c3ccc(Oc4ccccc4)cc3)c3cncnc32)CC1 | < 6.30 |

// query Please tell me: pIC50 of O=C(NC1CCCc2cc(-c3ncnc4[nH]ncc34)ccc21)c1ccc(Cl)c(Cl)c1 (stereo not shown) , system BTK (Homo sapiens, UniProt Q06187)?
// result 7.00 to 8.00

====

# IC50 against BTK (Homo sapiens, UniProt Q06187), merged from multiple literature sources
measurement kind: IC50 (µM)

| smiles code | readout units | measurement |
| --- | --- | --- |
| C=CC(=O)N1CC[C@]2(C1)C[C@H](n1c(NC(=O)c3ccc(-c4cncn4C)s3)nc3ccccc31)C2 | µM | 0.00533 |

(a) NC(=O)c1nnc2c(-c3ccc4nc(-c5ccccc5Cl)[nH]c4c3)cccc2c1N
(b) C=CC(=O)N1CCC[C@@H](n2nc(-c3ccc(-c4noc(C)n4)cc3)c3c(N)ncnc32)C1
// query Of a and b , whose reported IC50 is the larger number? Pick one and reply with its label.
// result b
(b: 0.145 µM, a: 0.0794 µM)

====

# IC50 against UniProt:Q06187, merged from multiple literature sources

// query Please tell me: IC50 of O=C(CNc1cc(Cl)cc(Cl)c1)N1C[C@@H](Nc2ncnc3[nH]ccc23)C[C@@H](C(F)(F)F)C1 , system UniProt:Q06187?
// result 100 to 999 nM

// query Please tell me: IC50 of CCn1cc(Nc2nccc(-c3ccc4c(c3)CCCCC4NC(=O)N3CCC(C(C)(C)C)C3)n2)cn1 (centres unmarked) , system UniProt:Q06187?
// result < 10 nM

// query Please tell me: IC50 of O=C(CNc1ccc(F)c(F)c1)NC1CCCN(c2ncnc3[nH]ccc23)C1 (centres unmarked) , system UniProt:Q06187?
// result 100 to 999 nM

// query Please tell me: IC50 of C=CC(=O)N1CCC[C@H](Nc2cc(CN3CCOCC3)cc(Nc3cc[nH]n3)n2)C1 , system UniProt:Q06187?
// result ~1000 nM

// query Please tell me: IC50 of C=CC(=O)Nc1cccc(-c2cc(CN3CCOCC3)cc(Nc3cc(C)[nH]n3)n2)c1 , system UniProt:Q06187?
// result 6.1 nM

// query Please tell me: IC50 of CC(C)CN(CC(C)C)S(=O)(=O)c1ccccc1NCC(=O)N[C@@H]1CCCN(c2ncnc3[nH]ccc23)C1 , system UniProt:Q06187?
// result < 100 nM

// query Please tell me: IC50 of C=CC(=O)N1CC[C@]2(C1)C[C@H](n1c(NC(=O)c3ccc(-n4cccn4)s3)nc3ccccc31)C2 , system UniProt:Q06187?
// result 23.7 nM

// query Please tell me: IC50 of C=CC(=O)N1CCCC(c2ncc(C(N)=O)c3[nH]c4c(c23)CCCC4)C1 (centres unmarked) , system UniProt:Q06187?
// result < 10 nM
